Assay: logP determination by HPLC on reversed-phase column (C 18), EEC Directive 79/831 Annex V.A8
Assay type: physicochemical
Measurement Setup: pH 2.3, 0.1% aqueous phosphoric acid/acetonitrile gradient, 43° C.
Each record is given true if its reported logP (pH 2.3) is strictly below 5. Records at or above 5 are given false.

Sample answers from the record:
Cn1cc(C(=Nc2ccccc2C2CC3CCC2C3)SC(=O)C(C)(C)C)c(C(F)F)n1 (centres unmarked) [Compound 18]
false
C#CCSC(=Nc1ccccc1C1CC2CCC1C2)c1cn(C)nc1C(F)F (centres unmarked) [Compound 8]
true
COCCSC(=Nc1ccccc1C1CC2CCC1C2)c1cn(C)nc1C(F)F (centres unmarked) [Compound 3]
true
Cn1cc(C(=Nc2ccccc2C2CC3CCC2C3)SCSC#N)c(C(F)F)n1 (centres unmarked) [Compound 7]
true
Cn1cc(C(=Nc2ccccc2C2CC3CCC2C3)SCC#N)c(C(F)F)n1 (centres unmarked) [Compound 6]
true
Cn1cc(C(=NO)Nc2ccccc2C2CC3CCC2C3)c(C(F)F)n1 (centres unmarked) [II-9]
true

Alright, here's another molecule for you.
Task: Would you kindly verify if logP (pH 2.3) of CCCCCCCCCCCCSC(=Nc1ccccc1C1CC2CCC1C2)c1cn(C)nc1C(F)F (centres unmarked) [Compound 13] is strictly less than 5?
Output: false

###

Assay: logP determination by HPLC on reversed-phase column (C 18), EEC Directive 79/831 Annex V.A8
Format: physicochemical
Measurement Setup: reversed-phase HPLC column (C 18); pH 2.3, 0.1% aqueous phosphoric acid/acetonitrile gradient, 43° C.
Endpoint: chromatographic logP
When you answer, write just the number.

Answered cases to consult:
CS/C(=N\c1ccccc1C1CC2CCC1C2)c1cn(C)nc1C(F)F (stereo not drawn) [Compound 9]
4.75
Cn1cc(C(=S)Nc2ccccc2C2CC3CCC2C3)c(C(F)F)n1 (stereo not drawn) [II-7]
3.66

Now examine the next entry.
Task: Looking for the measured chromatographic logP of Cn1cc(C(=NNc2ccccc2)Nc2ccccc2C2CC3CCC2C3)c(C(F)F)n1 (stereo not drawn) [II-8] , can you help?
Output: 3.66

###

Assay: logP determination by HPLC on reversed-phase column (C 18), EEC Directive 79/831 Annex V.A8
Assay type: physicochemical
Measurement Setup: pH 2.3
Listing: logP (pH 2.3) of selected compounds
Just the number, please, no unit after it.

The following compounds have reported results that may help.
CCC1(C(=O)SC(=Nc2ccccc2C2CC3CCC2C3)c2cn(C)nc2C(F)F)C(C)C1(Cl)Cl (stereo not shown) [Compound 19]
6.52
Cn1cc(C(=Nc2ccccc2C2CC3CCC2C3)SC(=O)C2(C)CCCCC2)c(C(F)F)n1 (stereo not shown) [Compound 20]
6.66
Cn1cc(C(=Nc2ccccc2C2CC3CCC2C3)SCCO)c(C(F)F)n1 (stereo not shown) [Compound 10]
3.23

We now examine a further compound.
Task: Given CCOC(=O)CSC(=Nc1ccccc1C1CC2CCC1C2)c1cn(C)nc1C(F)F (stereo not shown) [Compound 11] , state its recorded logP (pH 2.3).
Output: 4.66

###

Tested on: Alternaria solani
Assay: Alternaria Test (tomato)/protective
Format: in vivo
Measurement Setup: protective spray, application rate 500 ppm, evaluation 7 days after inoculation
Parameter: Efficacy in %. Scope: all listed entries.
Answer in %, number only, no unit symbol.

Example cases with answers are listed next.
CCOC(=O)CSC(=Nc1ccccc1C1CC2CCC1C2)c1cn(C)nc1C(F)F (stereo not shown)
95
Cn1cc(C(=Nc2ccccc2C2CC3CCC2C3)SC(=O)C2(C)CCCCC2)c(C(F)F)n1 (stereo not shown)
80
CCC1(C(=O)SC(=Nc2ccccc2C2CC3CCC2C3)c2cn(C)nc2C(F)F)C(C)C1(Cl)Cl (stereo not shown)
90

# context switch: different molecule, same Efficacy in %
Task: Reported Efficacy in % for Cn1cc(C(=Nc2ccccc2C2CC3CCC2C3)SCCO)c(C(F)F)n1 (stereo not shown) : what is it?
Output: 100
